B1: ESR2 (parent)
chain: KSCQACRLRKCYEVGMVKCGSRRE

- Variants of: B1
- assay_details: protein stability index of a GFP-peptide fusion (GPS, HEK-293T) (PSI 1-6); higher = more stable;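 also: lentivirally expressed fusions sorted by FACS into six bins by GFP to DsRed ratio, PSI derived from sequencing read proportions per bin multiplied by bin number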
- condition_set: c terminus: a fixed tail appended
// false (0) strictly below 2 in protein stability index; true (1) otherwise

construct_sequence: KSCQACRLRPCYEVGMVKCGSRRE [K10P]
assigned_label: false (0)

construct_sequence: KSCQACRLRKCYEVGMVKCGGRRE [S21G]
assigned_label: false (0)

construct_sequence: KSCQACRLRKCYEKGMVKCGSRRE [V14K]
assigned_label: true (1)

construct_sequence: KSCQACRLRKCYEVGMVKCGVRRE [S21V]
assigned_label: false (0)

construct_sequence: KSCQMCRLRKCYEVGMVKCGSRRE [A5M]
assigned_label: false (0)

construct_sequence: KSCFACRLRKCYEVGMVKCGSRRE [Q4F]
assigned_label: false (0)

construct_sequence: KSQQACRLRKCYEVGMVKCGSRRE [C3Q]
assigned_label: true (1)

construct_sequence: KMCQACRLRKCYEVGMVKCGSRRE [S2M]
assigned_label: false (0)

construct_sequence: KSCQACRLRKCMEVGMVKCGSRRE [Y12M]
assigned_label: false (0)

construct_sequence: KSCQACRLRKCYEVDMVKCGSRRE [G15D]
assigned_label: true (1)

construct_sequence: KSCQACRLRKCYAVGMVKCGSRRE [E13A]
assigned_label: false (0)

construct_sequence: KSCQACRLRQCYEVGMVKCGSRRE [K10Q]
assigned_label: false (0)

construct_sequence: KSCQACRLRKCYEVGMVKCHSRRE [G20H]
assigned_label: true (1)

construct_sequence: KSCQACRCRKCYEVGMVKCGSRRE [L8C]
assigned_label: true (1)

construct_sequence: KSCQACRLRKCYEVGMVDCGSRRE [K18D]
assigned_label: true (1)

construct_sequence: KSCQACRLRKCYEVGMVKCPSRRE [G20P]
assigned_label: false (0)

construct_sequence: KSCQACRLRKCYEHGMVKCGSRRE [V14H]
assigned_label: true (1)

construct_sequence: KSCQACRLRKCYEVGMEKCGSRRE [V17E]
assigned_label: false (0)

construct_sequence: KSCRACRLRKCYEVGMVKCGSRRE [Q4R]
assigned_label: true (1)

construct_sequence: KSCQACRLRKCAEVGMVKCGSRRE [Y12A]
assigned_label: true (1)

construct_sequence: KSCQACRLRKCYEVGMVKAGSRRE [C19A]
assigned_label: true (1)

construct_sequence: KSVQACRLRKCYEVGMVKCGSRRE [C3V]
assigned_label: true (1)

construct_sequence: KSTQACRLRKCYEVGMVKCGSRRE [C3T]
assigned_label: true (1)

construct_sequence: KSCQACRLRKCYEVGMVKCGSERE [R22E]
assigned_label: true (1)

construct_sequence: KSCQACRLRKCYVVGMVKCGSRRE [E13V]
assigned_label: false (0)

construct_sequence: KSCQACRPRKCYEVGMVKCGSRRE [L8P]
assigned_label: true (1)

construct_sequence: QSCQACRLRKCYEVGMVKCGSRRE [K1Q]
assigned_label: true (1)

construct_sequence: KSCQACRLRKCYEVGMVKCGCRRE [S21C]
assigned_label: true (1)

construct_sequence: KSCQACRLRKCYEVGMVKIGSRRE [C19I]
assigned_label: false (0)

construct_sequence: KSCQACRDRKCYEVGMVKCGSRRE [L8D]
assigned_label: false (0)

construct_sequence: KSCQACRLRKCYEVGMVKCGSDRE [R22D]
assigned_label: true (1)

construct_sequence: KSCQACRERKCYEVGMVKCGSRRE [L8E]
assigned_label: true (1)

construct_sequence: KSCNACRLRKCYEVGMVKCGSRRE [Q4N]
assigned_label: false (0)

construct_sequence: KSCQACRLRKCYEVGMVKCGSRRT [E24T]
assigned_label: true (1)

construct_sequence: KSCQACRLRKCYEVGMVKCGSRRW [E24W]
assigned_label: true (1)

construct_sequence: KSCQACRLRKCYPVGMVKCGSRRE [E13P]
assigned_label: false (0)

construct_sequence: KSCQACRLRKCYEVGMVKCMSRRE [G20M]
assigned_label: false (0)

construct_sequence: KSCQACRLRCCYEVGMVKCGSRRE [K10C]
assigned_label: false (0)

construct_sequence: KSCQACRLRKCYEVPMVKCGSRRE [G15P]
assigned_label: true (1)

construct_sequence: KSCQACRLRKCYEVGMVKCGSNRE [R22N]
assigned_label: false (0)

construct_sequence: KSCQACRLRKCYEVGMVKWGSRRE [C19W]
assigned_label: true (1)

construct_sequence: KSCQACRLRKCYEVGMHKCGSRRE [V17H]
assigned_label: true (1)

Reference source for all entries: the supplement of paper PMC10567573
